- test_system: recombinant human Meningioma Expressed Antigen 5 (MGEA5), also referred to as O-GlcNAcase (OGA) (Homo sapiens, UniProt O60502)
- Construct: Full length OGA enzyme was purchased at OriGene (cat #TP322411); purchased OriGene TP322411
- Sequence (O60502 1-916): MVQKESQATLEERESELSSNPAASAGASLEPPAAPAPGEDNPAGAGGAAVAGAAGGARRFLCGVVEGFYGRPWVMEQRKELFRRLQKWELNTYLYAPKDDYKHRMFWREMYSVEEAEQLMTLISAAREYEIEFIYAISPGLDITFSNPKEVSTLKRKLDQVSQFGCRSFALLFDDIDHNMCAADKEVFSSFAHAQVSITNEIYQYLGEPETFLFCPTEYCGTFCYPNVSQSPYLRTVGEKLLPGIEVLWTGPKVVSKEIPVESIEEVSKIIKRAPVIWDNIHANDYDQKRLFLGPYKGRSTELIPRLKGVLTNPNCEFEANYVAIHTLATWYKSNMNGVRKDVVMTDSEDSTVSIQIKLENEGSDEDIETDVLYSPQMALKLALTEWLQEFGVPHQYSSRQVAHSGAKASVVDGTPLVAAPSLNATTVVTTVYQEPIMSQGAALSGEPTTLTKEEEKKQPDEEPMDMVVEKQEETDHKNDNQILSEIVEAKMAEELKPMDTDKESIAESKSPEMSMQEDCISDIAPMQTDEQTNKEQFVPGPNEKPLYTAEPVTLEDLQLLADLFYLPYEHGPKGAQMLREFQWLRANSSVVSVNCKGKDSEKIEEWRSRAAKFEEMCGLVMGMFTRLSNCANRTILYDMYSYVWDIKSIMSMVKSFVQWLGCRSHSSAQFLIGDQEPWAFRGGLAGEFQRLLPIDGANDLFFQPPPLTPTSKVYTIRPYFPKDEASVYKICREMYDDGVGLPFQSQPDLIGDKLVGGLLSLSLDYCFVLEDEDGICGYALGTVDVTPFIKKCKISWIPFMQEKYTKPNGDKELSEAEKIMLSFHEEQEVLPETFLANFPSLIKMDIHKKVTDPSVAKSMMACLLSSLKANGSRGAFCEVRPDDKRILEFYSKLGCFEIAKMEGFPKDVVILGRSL
- protocol_notes: OGA biochemical assay (inhibition of FM-GlcNAc hydrolysis, fluorescence)
- measurement_context: FM-GlcNAc substrate, maximal effect, read-out: Enzymatic Emax (%)
quantity_kind: Emax (%)

Cc1cc(C[C@H]2CCCN(C(C)c3cnc4c(c3)nc(C)n4C)C2)cc(C)n1 (mixture of isomers)	100
Cc1cc([C@H]2CCCN(C(C)c3nc4nc(C)sc4cc3F)C2)cc(C)n1 (single isomer, unassigned)	100
COc1cc(C2CCCN(C(C)c3ccc4oc(C)nc4n3)C2)cc(C(F)(F)F)n1 (racemic)	101
Cc1cc(C[C@@H]2CCN(C(C)c3ccc4sc(C)nc4n3)C2)nc(C)n1 (single isomer, unassigned)	95
Cc1cc(OC[C@H]2CCCN(C(C)c3ccc4sc(C)nc4n3)C2)nc(C)n1 (mixture of isomers) [Compound 49ab]	100
Cc1cc(C2CCCN(C(C)c3cnc4[nH]c(C)nc4c3)C2)cc(C)n1 (stereo not shown)	98
Cc1cc(C[C@H]2CCCN(Cc3ccc4[nH]c(C)nc4c3)C2)cc(C)n1	89

---

- test_system: recombinant human Meningioma Expressed Antigen 5 (MGEA5), also referred to as O-GlcNAcase (OGA) (Homo sapiens, UniProt O60502)
- Construct: Full length OGA enzyme was purchased at OriGene (cat #TP322411); purchased OriGene TP322411
- protocol_notes: OGA biochemical assay (inhibition of FM-GlcNAc hydrolysis, fluorescence)
- measurement_context: FM-GlcNAc substrate, maximal effect, read-out: Enzymatic Emax (%)
- Text: The assay is based on the inhibition of the hydrolysis of fluorescein mono-β-D-N-Acetyl-Glucosamine (FM-GlcNAc) (Mariappa et al. 2015, Biochem J 470:255) by the recombinant human Meningioma Expressed Antigen 5 (MGEA5), also referred to as O-GlcNAcase (OGA). […] The fluorescence of the latter can be measured at excitation wavelength 485 nm and emission wavelength 538 nm. An increase in enzyme activity results in an increase in fluorescence signal. […]
quantity_kind: Emax (%)

Cc1cc(C[C@@H]2CCN(C(C)c3nc4nc(C)sc4cc3F)C2)cc(C)n1 (mixture of isomers) [Compound 50]	102
Cc1cc(C[C@H]2CCCN(C(C)c3cnc4[nH]c(C)nc4c3)C2)cc(C)n1 (single isomer, unassigned)	89

(I) COc1cc(O[C@@H]2CCN([C@@H](C)c3ccc4oc(C)nc4n3)C2)cc(C)n1 [Compound 21a]
(II) Cc1cc(CO[C@H]2CCCN(C(C)c3cc4nc(C)sc4cc3F)C2)cc(C)n1 (mixture of isomers) [Compound 99]
Sorting by Emax in descending order, would I or II appear first? Kindly give the label for the entry you pick.
II

---

- test_system: recombinant human Meningioma Expressed Antigen 5 (MGEA5), also referred to as O-GlcNAcase (OGA) (Homo sapiens)
- Construct: Full length OGA enzyme was purchased at OriGene (cat #TP322411); purchased OriGene TP322411
- protocol_notes: OGA biochemical assay (inhibition of FM-GlcNAc hydrolysis, fluorescence)
- measurement_context: FM-GlcNAc substrate, maximal effect, read-out: Enzymatic Emax (%)
quantity_kind: Emax (%)

// below: answered compounds
Cc1cc(C[C@H]2CCCN(Cc3ccc4nc(C)sc4c3)C2)cc(C)n1	77
Cc1cc(OC[C@H]2CCCN(C(C)c3cc4nc(C)oc4cc3F)C2)cc(C)n1 (mixture of isomers)	101
Cc1cc(C[C@@H]2CCN([C@H](C)c3cc4nc(C)sc4cc3F)C2)cc(C)n1	98
Cc1cc([C@H]2CCCN([C@H](C)c3ccc4sc(C)nc4n3)C2)cc(C)n1 (racemic)	86
Cc1cc(C[C@H]2CCCN(Cc3ccc4[nH]c(C)nc4n3)C2)cc(C)n1	96

(P) COc1cc([C@H]2CCCN([C@H](C)c3cnc4[nH]c(C)nc4c3)C2)cc(C(F)(F)F)n1
(Q) Cc1cc(C[C@H]2CCCN(Cc3ccc4cn(C)nc4c3)C2)cc(C)n1
// task: argmin of Emax over [ P , Q ] Kindly give the label for the entry you pick.
P
(P: 50%, Q: 90%)

---

- test_system: recombinant human Meningioma Expressed Antigen 5 (MGEA5), also referred to as O-GlcNAcase (OGA) (Homo sapiens, UniProt O60502)
- Construct: Full length OGA enzyme was purchased at OriGene (cat #TP322411); purchased OriGene TP322411
- protocol_notes: OGA biochemical assay (inhibition of FM-GlcNAc hydrolysis, fluorescence)
- measurement_context: FM-GlcNAc substrate, maximal effect, read-out: Enzymatic Emax (%)
quantity_kind: Emax (%)

COc1cc(OC2CCCN(C(C)c3ccc4sc(C)nc4n3)C2)cc(C)n1 (stereo not shown)	101
Cc1cc(OC2CCCN(C(C)c3ccc4[nH]c(C)nc4n3)C2)cc(C(F)(F)F)n1 (stereo not shown)	94

(P) Cc1cc(OC[C@H]2CCCN([C@H](C)c3ccc4sc(C)nc4n3)C2)nc(C)n1 [Compound 49b]
(Q) Cc1cc(C[C@@H]2CCN(C(C)c3ccc4oc(C(C)C)nc4n3)C2)cc(C)n1 (mixture of isomers)
Sorting by Emax in descending order, would P or Q appear first? Kindly give the label for the entry you pick.
P
(P: 99%, Q: 30%)

---

- test_system: recombinant human Meningioma Expressed Antigen 5 (MGEA5), also referred to as O-GlcNAcase (OGA) (Homo sapiens, UniProt O60502)
- Construct: Full length OGA enzyme was purchased at OriGene (cat #TP322411); purchased OriGene TP322411
- protocol_notes: OGA biochemical assay (inhibition of FM-GlcNAc hydrolysis, fluorescence)
- measurement_context: FM-GlcNAc substrate, 6 h at room temperature, read-out: Enzymatic hOGA, pIC50 (converted)
quantity_kind: IC50 (nM)

// below: answered molecules
Cc1cc(C[C@H]2CCN(C(C)c3cnc4[nH]c(C)nc4c3)C2)cc(C)n1 (some centres unmarked) [Compound 102]	398
Cc1cc(C[C@H]2CCCN([C@H](C)c3ccc4oc(C)nc4n3)C2)cc(OC(F)(F)F)n1 [Compound 25a]	3.98
COc1cc(C[C@@H]2CCN(C(C)c3ccc4oc(C)nc4n3)C2)cc(C)n1 (mixture of isomers) [Compound 28]	100
Cc1cc([C@H]2CCCN(C(C)c3nc4nc(C)sc4cc3F)C2)cc(C)n1 (single isomer, unassigned) [Compound 85]	3.98

(I) Cc1cc([C@H]2CCCN([C@H](C)c3ccc4sc(C)nc4n3)C2)cc(C)n1 (racemic) [Compound 75]
(II) Cc1cc(CO[C@H]2CCCN(C(C)c3ccc4sc(C)nc4n3)C2)cc(C)n1 (some centres unmarked) [Compound 66]
// task: argmin of IC50 over [ I , II ] Kindly give the label for the entry you pick.
II
